System: 786-0
assay procedure: NCI tumour cell line growth inhibition, 48 h
Activity calls are given as the source filed them. Cut-off read from the data, not from the text of the source: active = GI50 up to about 1.1 µM and inactive = higher.
endpoint name: GI50

compound: CN(CCCN(C)CCc1ccc(Cl)c(Cl)c1)CCCN1CCCC1
GI50: 1.26 µM (inactive)

compound: CC(=O)OCC1OC(OC2CC3C(C)(C)C(OC(C)=O)CC[C@]3(C)C3CCC45CC4(CC[C@H]5C(C)CC(O)C4OC4(C)C)[C@]23C)C(O)C(O)C1O (some centres undefined)
GI50: 2.7 µM (inactive)

compound: COc1ccccc1/C=C/C1=NN(c2cccc(S(=O)(=O)O)c2)C2(C1)C(Cl)C(=O)N2c1nc2ccccc2s1 (centres undefined)
GI50: 37.8 µM (inactive)

Kindly consider the entry below.
Exam item: Specify reported GI50 for the compound shown: `Nc1n[c-](N)[n+](=O)c(N)c1NCO`
Marked response: > 100 µM (inactive)

* * *

System: IGROV-1
assay procedure: NCI tumour cell line growth inhibition, 48 h
Active and inactive are the calls of the source. No stated cut-off is given here; in the data, active = GI50 up to about 1.1 µM and inactive = higher.
endpoint name: GI50

molecule: Nc1n[c-](N)[n+](=O)c(N)c1NCO
endpoint name: GI50
test value: > 100 µM (inactive)

molecule: CC(=O)OC(OC(C)=O)n1cc(C=O)c2ccccc21
endpoint name: GI50
test value: > 10 µM (inactive)

molecule: CN(C)/C=N/Cc1ccc2c(c1)OCO2
endpoint name: GI50
test value: > 100 µM (inactive)

molecule: O=C(NC1CCCCC1)NS(=O)(=O)c1ccc2c(c1)CCC2 [GLYHEXAMIDE]
endpoint name: GI50
test value: > 100 µM (inactive)

Kindly consider the entry below.
Exam item: Specify reported GI50 for the molecule shown: CCOC(=O)Cc1nc2c(N)ncnc2n1C1OC(COC(C)=O)C(OC(C)=O)C1OC(C)=O (stereo not given)
Marked response: > 100 µM (inactive)

* * *

Test system: NCI-H23
assay procedure: NCI tumour cell line growth inhibition, 48 h
Calls of active or inactive are those of the source. Cut-off read from the data, not from the text of the source: active = GI50 up to about 1.1 µM and inactive = higher.
Log the outcome using a class from active, inactive

Please review the entries below; each comes with its answer.
compound: CC(=O)O[C@H]1CC[C@@]2(C)C(=CC[C@@H]3[C@@H]2CC[C@]2(C)c4nc(N)c(C#N)cc4C[C@@H]32)C1
class name: inactive
//
compound: COc1cc2cc(C(=O)N3CC(CCl)c4c3cc(NC(=O)C(C)Nc3c([N+](=O)[O-])cc(C(=O)NCCN(C)C)cc3[N+](=O)[O-])c3ccccc43)[nH]c2c(OC)c1OC (stereo unspecified)
class name: active
//
compound: N#CC12CC3=C(N=C1NC1=C(CCc4ccccc41)C2)c1ccccc1CC3 (stereo unspecified)
class name: inactive
//
compound: Cc1[nH]c2c(C)cccc2c1C1Cc2ccccc2N1 (stereo unspecified)
class name: inactive
//
compound: COc1cc(O)c(C(=O)CC(C)=O)c(OC)c1
class name: inactive

Exam item: Assay outcome for `Cc1cc(Cc2c(F)c(F)c(Cc3cc(C)no3)c(F)c2F)on1` : what was it?
Marked response: inactive

Exam item: Assay outcome for `Cc1ccc(Cl)c2c1NC(=O)/C2=N\Nc1ccccc1[N+](=O)[O-]` : what was it?
Marked response: inactive

Exam item: Assay outcome for `O=S(O)CCCSSCCCCSSCCCS(=O)O` : what was it?
Marked response: inactive

Exam item: Assay outcome for Cc1ccc(C(O)c2cnc(C)n2Cc2ccccc2)cc1 (stereo unspecified) : what was it?
Marked response: inactive

Exam item: Assay outcome for `O=C(/C(Cl)=C/c1ccccc1)c1ccccc1` : what was it?
Marked response: inactive

Exam item: Assay outcome for `CC1=C(C(=O)NCCCN(CCO)CCO)CC(C(=O)NCCCN(CCO)CCO)=C(C)N1` : what was it?
Marked response: inactive

Exam item: Assay outcome for CCc1cccc(C(C)CC)c1NC(=O)C(=O)C(CC(=O)Nc1ccc(Cl)c(Cl)c1)C(=O)OC (stereo unspecified) : what was it?
Marked response: inactive

Exam item: Assay outcome for `N#C/C(=C\N1CCNC1=S)C(=O)c1ccc2ccccc2c1` : what was it?
Marked response: inactive

* * *

System: CAKI-1
assay procedure: NCI tumour cell line growth inhibition, 48 h
Calls of active or inactive are those of the source. No stated cut-off is given here; in the data, active = GI50 up to about 1.1 µM and inactive = higher.
endpoint name: GI50

Exam item: // output GI50; input CC(CC[C@@H](O)C(C)(C)O)C1[C@@H](O)CC2(C)C3CC(O)C4C(C)(C)[C@@H](OC5OC(CO)C(O)C(O)C5O)CC[C@@]45C[C@@]35CC[C@]12C (stereo partly specified) ; system CAKI-1
Marked response: > 10 µM (inactive)

Exam item: // output GI50; input `CC(C)CCNC(=O)c1ccc(CNC(=O)/C=C/c2ccc3c(c2)-c2ccccc2C3)cc1` ; system CAKI-1
Marked response: 26.5 µM (inactive)

Exam item: // output GI50; input `Nc1nc(Cl)cc(Oc2ccc(Cl)cc2)n1` ; system CAKI-1
Marked response: 44.6 µM (inactive)

* * *

Test system: HOP-92
assay procedure: NCI tumour cell line growth inhibition, 48 h
Calls of active or inactive are those of the source. No stated cut-off is given here; in the data, active = GI50 up to about 1.1 µM and inactive = higher.
Log the outcome using a class from true = active, false = inactive

Please review the entries below; each comes with its answer.
molecule: O=c1[nH]nc(Cc2ccc(Cl)cc2)n1CCO
class name: false

molecule: CCOC(=O)c1ccc(NC2Oc3cc4c(cc3C(c3cc(OC)c(OC)c(OC)c3)C2C)OCO4)cc1 (centres undefined)
class name: true

molecule: CN(CCCN(C)CCc1ccc(Cl)c(Cl)c1)CCCN1CCCC1
class name: false

molecule: CC(=O)N1CCc2[nH]c3ccccc3c2CC1
class name: false

molecule: Cc1cc(CC(O)c2ccc(Cl)c(Cl)c2)nc(O)n1 (centres undefined)
class name: false

molecule: N=C(N)NS(=O)(=O)c1ccc(NC(=O)c2cccc3c(Nc4ccc(S(=O)(=O)N=C(N)N)cc4)c4ccc(Cl)cc4nc23)cc1
class name: false

Exam item: Assay outcome for `CC[C@H](C)[C@H](NC(=O)N(CCC#N)CCN(CCN(C(=O)N[C@@H](Cc1ccccc1)C(=O)OC)c1ccccc1)C(=O)N[C@H](C(=O)OC)C(C)C)C(=O)OC` : what was it?
Marked response: false

Exam item: Assay outcome for `O=C(Nc1ccc(Cl)cc1)NS(=O)(=O)c1coc2ccccc2c1=O` : what was it?
Marked response: false

Exam item: Assay outcome for COc1cc(C2C(C(=O)O)=C(CO)Oc3cc4c(cc32)OCO4)cc(OC)c1O (centres undefined) : what was it?
Marked response: false

* * *

Reported GI50 values for the following compounds.
Test system: NCI-H522
assay procedure: NCI tumour cell line growth inhibition, 48 h
Activity calls are given as the source filed them. No stated cut-off is given here; in the data, active = GI50 up to about 1.1 µM and inactive = higher.

Below: 5 compounds and their reported GI50.
compound: O=C(/C(Cl)=C/c1ccccc1)c1ccccc1
endpoint name: GI50
test value: 1.58 µM (inactive)

compound: COC(OC)[C@@H](C)[C@H](O)[C@](C)(O)C1OC(C)(C)OC(C(C)C=C(C)C)C1C (stereo partly specified)
endpoint name: GI50
test value: > 100 µM (inactive)

compound: Oc1ccc2ccccc2c1/N=N\c1cccc2ccccc12
endpoint name: GI50
test value: 82.6 µM (inactive)

compound: O=c1ccc2ccc(O)c3c4c(O)ccc5ccc(=O)c(c1c23)c54
endpoint name: GI50
test value: 1.45 µM (inactive)

compound: COc1ccc(/N=C2\C(=N/c3ccc(OC)cc3)N(c3ccccc3[N+](=O)[O-])C(=S)N2c2ccc(OC)cc2)cc1
endpoint name: GI50
test value: 96.4 µM (inactive)

Exam item: Specify reported GI50 for the compound shown: `CCOC(=O)c1cc2cc(N(C(C)=O)C(C)=O)ccc2s1`
Marked response: 16.8 µM (inactive)

Exam item: Specify reported GI50 for the compound shown: `COc1cc2noc(-c3ccccc3)c2cc1OC`
Marked response: 36.4 µM (inactive)

Exam item: Specify reported GI50 for the compound shown: NC(=S)N1N=C(c2ccccc2O)CC1c1ccccc1 (stereo unspecified)
Marked response: 3.99 µM (inactive)

Exam item: Specify reported GI50 for the compound shown: CC(C)(C)OC(=O)NCCC1CNc2ccccc21 (stereo unspecified)
Marked response: > 100 µM (inactive)

Exam item: Specify reported GI50 for the compound shown: `Nc1nc(Cl)cc(Oc2ccc(Cl)cc2)n1`
Marked response: 22.6 µM (inactive)

Exam item: Specify reported GI50 for the compound shown: O=[N+]([O-])c1cccc(C2=NN(c3ccccc3)C3c4ccccc4OCC23)c1 (stereo unspecified)
Marked response: 62.1 µM (inactive)

* * *

Test system: HT-29
assay procedure: NCI tumour cell line growth inhibition, 48 h
The source made the active and inactive calls. Cut-off read from the data, not from the text of the source: active = GI50 up to about 1.1 µM and inactive = higher. Non-standard residues stand in square brackets, D forms with d. Residues, ends and D or L forms follow the SMILES beside them. Ava = NCCCCC(=O)O; Mpa = O=C(O)CCS
Log the outcome using a class from Yes (active), No (inactive)

Please review the entries below; each comes with its answer.
molecule: CC(NC(=O)CCS)C(=O)NC(C)C(=O)NC(Cc1c[nH]c2ccccc12)C(=O)NC(Cc1c[nH]cn1)C(=O)NC(CO)C(=O)NC(Cc1c[nH]c2ccccc12)C(=O)NCCCCC(=O)NC(C)C(=O)NC(CCC(N)=O)C(=O)NC(CCCCN)C(=O)NC(C)C(=O)NC(CCCNC(=N)N)C(=O)NC(CCCCN)C(N)=O (centres undefined) ([Mpa]AAWHSW[Ava]AQKARK-NH2; configuration not given here)
subject of test: HT-29
class name: No
//
molecule: COc1ccc2c(c1)c1ccc3c(c1n2C)C(=O)C=CC3=O
subject of test: HT-29
class name: No
//
molecule: NC(CSS(=O)(=O)c1ccccc1)C(=O)O (centres undefined)
subject of test: HT-29
class name: No
//
molecule: CCSc1nn(-c2c3ccccc3nc3ccccc23)c(=S)s1
subject of test: HT-29
class name: No
//
molecule: C[N+](C)(CCNc1ccc(NCC[N+](C)(C)Cc2ccc([N+](=O)[O-])cc2)c2c1C(=O)c1c(O)ccc(O)c1C2=O)Cc1ccc([N+](=O)[O-])cc1
subject of test: HT-29
class name: No

Exam item: Assay outcome for `N#Cc1cccc2c1Sc1ccccc1N2` : what was it?
Marked response: No
